Please respond with reported inhibition at 10 µM for every item in the list.
Tested on: SNB-19
Test: NCI SRB growth inhibition (single dose 10 µM / five-dose)
Assay type: cell-based, human
Conditions: Homo sapiens; SNB-19 (CNS cancer), 10 µM; read-out: GI%
Give a bare numeral; the unit % is implied.

Prompt: Can you share its inhibition at 10 µM? I mean this molecule: `COc1ccc(-c2nc3cc(C(=O)NN=Cc4cc(OC)c(OC)c(OC)c4)ccc3[nH]2)cc1`
Completion: 36.2

Prompt: Can you share its inhibition at 10 µM? I mean this molecule: `COc1ccc(OC)c(C=NNC(=O)c2ccc3[nH]c(-c4ccccc4)nc3c2)c1`
Completion: 21.4

Prompt: Can you share its inhibition at 10 µM? I mean this molecule: `COc1ccc(-c2nc3cc(C(=O)NN=Cc4ccc(OC)c(O)c4)ccc3[nH]2)cc1`
Completion: 16.1

Prompt: Can you share its inhibition at 10 µM? I mean this molecule: `COc1ccc(C=NNC(=O)c2ccc3[nH]c(-c4ccc(Cl)cc4)nc3c2)cc1O`
Completion: 39.7

Prompt: Can you share its inhibition at 10 µM? I mean this molecule: `COc1cc(C=NNC(=O)c2ccc3[nH]c(-c4ccccc4)nc3c2)cc(OC)c1OC`
Completion: 25.2

Prompt: Can you share its inhibition at 10 µM? I mean this molecule: `COc1cccc(C=NNC(=O)c2ccc3[nH]c(-c4ccccc4)nc3c2)c1O`
Completion: 90.4

Prompt: Can you share its inhibition at 10 µM? I mean this molecule: `COc1ccc(-c2nc3cc(C(=O)NN=Cc4cccc(O)c4)ccc3[nH]2)cc1`
Completion: 15.8

Prompt: Can you share its inhibition at 10 µM? I mean this molecule: `COc1ccc(OC)c(C=NNC(=O)c2ccc3[nH]c(-c4ccc(Cl)cc4)nc3c2)c1`
Completion: 45.7

----------
System: SR
Experiment: NCI SRB growth inhibition (single dose 10 µM / five-dose)
Type: cell-based, human
Conditions: Homo sapiens; SR (Leukemia), 10 µM; read-out: GI%
Please respond with reported inhibition at 10 µM for every item in the list.
Give a bare numeral; the unit % is implied.

Prompt: Param readout= inhibition at 10 µM; system= SR; entry= O=C(NN=Cc1cccc(O)c1)c1ccc2[nH]c(-c3ccccc3)nc2c1 [8b] ; returns value.
Completion: 36.8

Prompt: Param readout= inhibition at 10 µM; system= SR; entry= COc1ccc(OC)c(C=NNC(=O)c2ccc3[nH]c(-c4ccc(Cl)cc4)nc3c2)c1 [8t] ; returns value.
Completion: 31.4

Prompt: Param readout= inhibition at 10 µM; system= SR; entry= COc1ccc(OC)c(C=NNC(=O)c2ccc3[nH]c(-c4ccccc4)nc3c2)c1 [8f] ; returns value.
Completion: 36.3

Prompt: Param readout= inhibition at 10 µM; system= SR; entry= COc1ccc(-c2nc3cc(C(=O)NN=Cc4cc(OC)ccc4OC)ccc3[nH]2)cc1 [8m] ; returns value.
Completion: 28.5

Prompt: Param readout= inhibition at 10 µM; system= SR; entry= COc1ccc(C=NNC(=O)c2ccc3[nH]c(-c4ccccc4)nc3c2)cc1O [8e] ; returns value.
Completion: 44.1

Prompt: Param readout= inhibition at 10 µM; system= SR; entry= COc1ccc(-c2nc3cc(C(=O)NN=Cc4cccc(OC)c4)ccc3[nH]2)cc1 [8j] ; returns value.
Completion: 92.7

Prompt: Param readout= inhibition at 10 µM; system= SR; entry= COc1ccc(C=NNC(=O)c2ccc3[nH]c(-c4ccc(Cl)cc4)nc3c2)cc1O [8s] ; returns value.
Completion: 77.2

----------
Molecular target: VEGFR-2 (Homo sapiens)
Construct: purchased BPS Biosciences 40325
Sequence (P35968 20-1356): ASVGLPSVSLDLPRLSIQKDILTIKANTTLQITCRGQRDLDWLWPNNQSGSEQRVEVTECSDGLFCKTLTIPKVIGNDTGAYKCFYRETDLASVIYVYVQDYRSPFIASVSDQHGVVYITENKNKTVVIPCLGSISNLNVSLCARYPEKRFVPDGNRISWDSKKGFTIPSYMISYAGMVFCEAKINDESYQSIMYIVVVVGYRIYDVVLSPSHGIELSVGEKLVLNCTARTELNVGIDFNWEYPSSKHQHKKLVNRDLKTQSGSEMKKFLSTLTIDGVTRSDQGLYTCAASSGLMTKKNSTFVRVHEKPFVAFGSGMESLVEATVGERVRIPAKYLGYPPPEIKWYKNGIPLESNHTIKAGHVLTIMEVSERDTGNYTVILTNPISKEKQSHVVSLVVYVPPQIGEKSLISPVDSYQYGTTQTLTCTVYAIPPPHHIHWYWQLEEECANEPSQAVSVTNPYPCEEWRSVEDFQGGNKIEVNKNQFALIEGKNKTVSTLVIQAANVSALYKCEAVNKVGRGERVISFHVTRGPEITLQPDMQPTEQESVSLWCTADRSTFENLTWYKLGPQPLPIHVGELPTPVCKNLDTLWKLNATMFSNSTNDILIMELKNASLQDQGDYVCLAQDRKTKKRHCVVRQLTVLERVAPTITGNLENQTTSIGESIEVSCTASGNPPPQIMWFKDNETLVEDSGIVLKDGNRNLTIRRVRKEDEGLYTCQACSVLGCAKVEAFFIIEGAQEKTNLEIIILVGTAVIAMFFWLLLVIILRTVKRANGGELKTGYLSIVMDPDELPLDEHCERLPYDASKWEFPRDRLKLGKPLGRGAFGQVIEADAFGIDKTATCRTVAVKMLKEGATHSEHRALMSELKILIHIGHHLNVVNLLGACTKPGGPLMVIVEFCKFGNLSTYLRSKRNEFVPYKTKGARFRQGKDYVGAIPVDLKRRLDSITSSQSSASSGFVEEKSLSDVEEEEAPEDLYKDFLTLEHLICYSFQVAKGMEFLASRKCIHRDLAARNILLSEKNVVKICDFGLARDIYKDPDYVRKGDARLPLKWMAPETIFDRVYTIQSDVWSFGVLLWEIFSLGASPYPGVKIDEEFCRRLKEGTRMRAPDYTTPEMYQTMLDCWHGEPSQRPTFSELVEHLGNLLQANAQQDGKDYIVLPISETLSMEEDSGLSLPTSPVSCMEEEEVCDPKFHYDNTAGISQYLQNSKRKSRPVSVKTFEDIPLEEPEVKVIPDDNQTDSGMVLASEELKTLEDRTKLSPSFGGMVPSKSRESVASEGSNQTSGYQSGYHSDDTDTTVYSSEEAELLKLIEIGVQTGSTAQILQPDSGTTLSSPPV
Test: VEGFR-2 kinase assay kit (BPS), Kinase-Glo Max luminescence
Format: biochemical
Settings: VEGFR-2, single dose 10 µM, duplicate, mean ± SD
property name: inhibition at 10 µM (%)
Give a bare numeral; the unit % is implied.

Prompt: Can you share its inhibition at 10 µM? I mean this compound: `COc1ccc(-c2nc3cc(C(=O)NN=Cc4cc(OC)c(OC)c(OC)c4)ccc3[nH]2)cc1`
Completion: 20.8

Prompt: Can you share its inhibition at 10 µM? I mean this compound: `COc1ccc(OC)c(C=NNC(=O)c2ccc3[nH]c(-c4ccc(Cl)cc4)nc3c2)c1`
Completion: 34

Prompt: Can you share its inhibition at 10 µM? I mean this compound: `COc1ccc(C=NNC(=O)c2ccc3[nH]c(-c4ccccc4)nc3c2)cc1O`
Completion: 36.4

Prompt: Can you share its inhibition at 10 µM? I mean this compound: `COc1ccc(-c2nc3cc(C(=O)NN=Cc4cccc(OC)c4O)ccc3[nH]2)cc1`
Completion: 69.5

Prompt: Can you share its inhibition at 10 µM? I mean this compound: `COc1cccc(C=NNC(=O)c2ccc3[nH]c(-c4ccc(Cl)cc4)nc3c2)c1O`
Completion: 25.7

Prompt: Can you share its inhibition at 10 µM? I mean this compound: `O=C(NN=Cc1cccc(O)c1)c1ccc2[nH]c(-c3ccccc3)nc2c1`
Completion: 23.8

Prompt: Can you share its inhibition at 10 µM? I mean this compound: `COc1cc(C=NNC(=O)c2ccc3[nH]c(-c4ccccc4)nc3c2)cc(OC)c1OC`
Completion: 47.9

Prompt: Can you share its inhibition at 10 µM? I mean this compound: `COc1ccc(-c2nc3cc(C(=O)NN=Cc4ccc(OC)c(O)c4)ccc3[nH]2)cc1`
Completion: 50.6

Prompt: Can you share its inhibition at 10 µM? I mean this compound: `COc1cccc(C=NNC(=O)c2ccc3[nH]c(-c4ccccc4)nc3c2)c1`
Completion: 18.5

Prompt: Can you share its inhibition at 10 µM? I mean this compound: `COc1ccc(C=NNC(=O)c2ccc3[nH]c(-c4ccc(Cl)cc4)nc3c2)cc1O`
Completion: 26.7

Prompt: Can you share its inhibition at 10 µM? I mean this compound: `COc1ccc(-c2nc3cc(C(=O)NN=Cc4cc(OC)ccc4OC)ccc3[nH]2)cc1`
Completion: 6.67

----------
Test system: HT29
Experiment: NCI SRB growth inhibition (single dose 10 µM / five-dose)
Format: cell-based, human
Settings: Homo sapiens, HT-29; HT29, Colon cancer; five-dose
Each record is given met if its reported GI50 is strictly below 3 µM. Records at or above 3 µM are given not met.

Prompt: Quick check: does `COc1cccc(C=NNC(=O)c2ccc3[nH]c(-c4ccc(Cl)cc4)nc3c2)c1` have GI50 under 3 µM?
Completion: met

Prompt: Quick check: does `COc1cccc(C=NNC(=O)c2ccc3[nH]c(-c4ccccc4)nc3c2)c1O` have GI50 under 3 µM?
Completion: not met

Prompt: Quick check: does `COc1ccc(-c2nc3cc(C(=O)NN=Cc4cccc(OC)c4O)ccc3[nH]2)cc1` have GI50 under 3 µM?
Completion: not met

Prompt: Quick check: does `COc1cccc(C=NNC(=O)c2ccc3[nH]c(-c4ccc(Cl)cc4)nc3c2)c1O` have GI50 under 3 µM?
Completion: not met

Prompt: Quick check: does `O=C(NN=Cc1ccccc1O)c1ccc2[nH]c(-c3ccc(Cl)cc3)nc2c1` have GI50 under 3 µM?
Completion: met

Prompt: Quick check: does `COc1ccc(-c2nc3cc(C(=O)NN=Cc4cccc(OC)c4)ccc3[nH]2)cc1` have GI50 under 3 µM?
Completion: met

----------
Tested on: IGROV1
Experiment: NCI SRB growth inhibition (single dose 10 µM / five-dose)
Assay type: cell-based, human
Conditions: Homo sapiens, IGROV-1; IGROV1 (Ovarian cancer), 10 µM; read-out: GI%
// label = 1 (yes) if inhibition at 10 µM is not less than 20%, otherwise 0 (no)

Prompt: Please tell me: is the molecule `COc1ccc(-c2nc3cc(C(=O)NN=Cc4cc(OC)c(OC)c(OC)c4)ccc3[nH]2)cc1` at or over 20% in terms of inhibition at 10 µM?
Completion: 0 (no)

Prompt: Please tell me: is the molecule `COc1ccc(-c2nc3cc(C(=O)NN=Cc4cc(OC)ccc4OC)ccc3[nH]2)cc1` at or over 20% in terms of inhibition at 10 µM?
Completion: 0 (no)

Prompt: Please tell me: is the molecule `COc1cc(C=NNC(=O)c2ccc3[nH]c(-c4ccccc4)nc3c2)cc(OC)c1OC` at or over 20% in terms of inhibition at 10 µM?
Completion: 0 (no)

Prompt: Please tell me: is the molecule `COc1cc(C=NNC(=O)c2ccc3[nH]c(-c4ccc(Cl)cc4)nc3c2)cc(OC)c1OC` at or over 20% in terms of inhibition at 10 µM?
Completion: 1 (yes)

Prompt: Please tell me: is the molecule `COc1ccc(OC)c(C=NNC(=O)c2ccc3[nH]c(-c4ccccc4)nc3c2)c1` at or over 20% in terms of inhibition at 10 µM?
Completion: 0 (no)

Prompt: Please tell me: is the molecule `O=C(NN=Cc1ccccc1O)c1ccc2[nH]c(-c3ccc(Cl)cc3)nc2c1` at or over 20% in terms of inhibition at 10 µM?
Completion: 1 (yes)

Prompt: Please tell me: is the molecule `COc1cccc(C=NNC(=O)c2ccc3[nH]c(-c4ccc(Cl)cc4)nc3c2)c1` at or over 20% in terms of inhibition at 10 µM?
Completion: 1 (yes)

Prompt: Please tell me: is the molecule `COc1ccc(C=NNC(=O)c2ccc3[nH]c(-c4ccccc4)nc3c2)cc1O` at or over 20% in terms of inhibition at 10 µM?
Completion: 1 (yes)

Prompt: Please tell me: is the molecule `COc1cccc(C=NNC(=O)c2ccc3[nH]c(-c4ccc(Cl)cc4)nc3c2)c1O` at or over 20% in terms of inhibition at 10 µM?
Completion: 1 (yes)

Prompt: Please tell me: is the molecule `COc1ccc(-c2nc3cc(C(=O)NN=Cc4ccccc4O)ccc3[nH]2)cc1` at or over 20% in terms of inhibition at 10 µM?
Completion: 1 (yes)
